Please go through the items and note down their normalized growth.
- measurement_protocol: chemical genetic growth profiling, strain panel (AID 1159580);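 note: tested at 20 µM; growth read once vehicle control cultures reached saturation at 30 °C; 1 = growth at the plate median or of vehicle wells; lower values mean less growth of the strain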
- measurement_conditions: S. cerevisiae deletion strains, growth OD, locus YOR144C, strain elg1, hits give low values
In all, about 5,500 compounds went through this assay and about 2,000 (36%) were called active. Not shown: some 18% with an inconclusive outcome. The list shows a part of the results.
Write no unit; give the number alone.

Could you tell me which normalized growth is on file for CC[C@H]1OC(=O)[C@H](C)[C@@H](O[C@H]2C[C@@](C)(OC)[C@@H](O)[C@H](C)O2)[C@H](C)[C@@H](O[C@@H]2O[C@H](C)C[C@H](N(C)C)[C@H]2O)[C@](C)(OC)C[C@@H](C)C(=O)[C@H](C)[C@@H](O)[C@]1(C)O ?
0.973

Could you tell me which normalized growth is on file for O=C(Oc1cc(OC(=O)c2ccccc2)c2c(c1)O[C@H](c1ccc(OC(=O)c3ccccc3)c(OC(=O)c3ccccc3)c1)[C@@H](OC(=O)c1ccccc1)C2)c1ccccc1 ?
1.04

Could you tell me which normalized growth is on file for Cn1c(=O)c2c(ncn2CC(O)CO)n(C)c1=O (stereo not drawn) ?
0.98

Could you tell me which normalized growth is on file for CC(=O)Oc1cc(OC(C)=O)c2c(c1)O[C@H](c1ccc(OC(C)=O)c(OC(C)=O)c1)[C@H](OC(C)=O)C2 ?
1.02

Could you tell me which normalized growth is on file for COc1cc(OC)c2c(c1)O[C@H](c1cc(OC)c(OC)c(OC)c1)[C@H](OC(=O)c1cc(OC)c(OC)c(OC)c1)C2 ?
1

Could you tell me which normalized growth is on file for O=C(O[C@@H]1Cc2c(O)cc(O)cc2O[C@@H]1c1ccc(O)c(O)c1)c1cc(O)c(O)c(O)c1 ?
1.02

Could you tell me which normalized growth is on file for O=C(O[C@@H]1Cc2c(O)cc(O)cc2O[C@@H]1c1cc(O)c(O)c(O)c1)c1cc(O)c(O)c(O)c1 ?
0.971

Could you tell me which normalized growth is on file for C[C@@H]1CC(Cl)CC[C@H]1C(=O)OC(C)(C)C (stereo partly drawn) ?
0.991

###

- measurement_protocol: chemical genetic growth profiling, strain panel (AID 1159580);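 note: tested at 20 µM; growth read once vehicle control cultures reached saturation at 30 °C; 1 = growth at the plate median or of vehicle wells; lower values mean less growth of the strain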
- measurement_conditions: S. cerevisiae deletion strains, growth OD, locus YHR142W, strain chs7, hits give low values
Screen size: about 5,500 compounds; about 2,000 (36%) were called active. About 18% were inconclusive and are not listed. This is one part of the list.
property_label: normalized growth
Write no unit; give the number alone.

Could you tell me which normalized growth is on file for COc1ccc(-c2coc3cc(O)ccc3c2=O)c(OC)c1 ?
0.999

Could you tell me which normalized growth is on file for COc1cc(CNC(=O)CCCC/C=C/C(C)C)ccc1O ?
0.998

Could you tell me which normalized growth is on file for O=C1C(Cl)=C(Cl)C(=O)C(Cl)=C1Cl ?
0.928

Could you tell me which normalized growth is on file for COc1ccc(C2CNC(=O)C2)cc1OC1CCCC1 (stereo not given) ?
0.98

Could you tell me which normalized growth is on file for CC#CC1(O)CCC2C3CCC4=CC(=O)CCC4=C3C(c3ccc(N(C)C)cc3)CC21C (stereo not given) ?
0.997

Could you tell me which normalized growth is on file for COc1ccc([C@H]2Oc3c(I)c(OC)cc(OC)c3C[C@@H]2O)cc1OC ?
1.03

Could you tell me which normalized growth is on file for COc1ccc(-c2coc3cc(O)ccc3c2=O)c(O)c1O ?
0.86

Could you tell me which normalized growth is on file for C/C=C(\C)C(=O)O[C@H]1C[C@@H](OC(C)=O)[C@@]2(C(=O)OC)CO[C@@H]3C2[C@]12CO[C@](O)(C(=O)OC)[C@H]2[C@](C)(C12O[C@@]1(C)[C@H]1C[C@@H]2OC2OC=C[C@@]21O)[C@@H]3O (stereo not given in full) ?
0.974

Could you tell me which normalized growth is on file for O=S(=O)(O)c1cc(N=C=S)ccc1/C=C/c1ccc(N=C=S)cc1S(=O)(=O)O ?
1.04

Could you tell me which normalized growth is on file for O=C(O[C@@H]1Cc2c(O)cc(O)cc2O[C@@H]1c1ccc(O)c(O)c1)c1cc(O)c(O)c(O)c1 ?
0.851

Could you tell me which normalized growth is on file for CC[C@@H](C(=O)C(C)[C@@H](O)[C@H](C)CCc1ccc(C)c(O)c1C(=O)O)C1OC(CC)(C2CC[C@](O)(CC)[C@H](C)O2)C[C@@H]1C (stereo not given in full) ?
1.08

Could you tell me which normalized growth is on file for Oc1cc(O)c2c(c1)O[C@H](c1ccc(O)c(O)c1)[C@@H](O)C2 ?
1.03

Could you tell me which normalized growth is on file for COC(=O)[C@@H]1OC(=O)C2OC23[C@@]1(C)CCC1[C@]2(C)C(C[C@H](O)[C@]13C)C(C)(C)[C@H](OC(C)=O)C[C@@H]2OC(C)=O (stereo not given in full) ?
1.02

Could you tell me which normalized growth is on file for OCC(O)CN1CCN(c2ccccc2)CC1 (stereo not given) ?
0.932

Could you tell me which normalized growth is on file for O=C(O[C@@H]1Cc2c(O)cc(O)cc2O[C@@H]1c1cc(O)c(O)c(O)c1)c1cc(O)c(O)c(O)c1 ?
0.749

Could you tell me which normalized growth is on file for COc1ccc(C(c2ccc(OC)cc2)C(Cl)(Cl)Cl)cc1 ?
0.988

Could you tell me which normalized growth is on file for CCN(CC)Cc1ccc(Nc2ccnc3cc(Cl)ccc23)cc1O ?
1.03

Could you tell me which normalized growth is on file for CO/N=C1/CN(c2nc3c(cc2F)c(=O)c(C(=O)O)cn3C2CC2)CC1CN (stereo not given) ?
1.02

Could you tell me which normalized growth is on file for O=C(O)CCCc1ccc(N(CCCl)CCCl)cc1 ?
0.949

Could you tell me which normalized growth is on file for O=C(Oc1cc(O)cc2c1C[C@@H](OC(=O)c1cc(O)c(O)c(O)c1)[C@@H](c1cc(O)c(O)c(O)c1)O2)c1cc(O)c(O)c(O)c1 ?
1.01

Could you tell me which normalized growth is on file for CC(=O)Oc1cc(OC(C)=O)c2c(c1)O[C@H](c1ccc(OC(C)=O)c(OC(C)=O)c1)[C@@H](OC(C)=O)C2 ?
1.02

Could you tell me which normalized growth is on file for O=C(c1ccc(OCCN2CCCCC2)cc1)c1c(-c2ccc(O)cc2)sc2cc(O)ccc12 ?
0.983

Could you tell me which normalized growth is on file for COc1ccc(OC)c(C(O)CNC(=O)CN)c1 (stereo not given) ?
0.997

Could you tell me which normalized growth is on file for COc1ccc2c(c1)OC1(O)COc3cc(OC)c(OC)cc3C1=C2 (stereo not given) ?
0.926

Could you tell me which normalized growth is on file for CC1(O)CC2C(CC1O)C2(C)C (stereo not given) ?
1.01

Could you tell me which normalized growth is on file for CCCCCCCCCCCCCc1ccco1 ?
0.922

Could you tell me which normalized growth is on file for Oc1ccc2c(c1)O[C@H](c1ccc(O)c(O)c1)[C@@H](O)C2 ?
1.04

Could you tell me which normalized growth is on file for CC[C@@]1(O)C[C@H](O[C@H]2C[C@H](N(C)C)[C@H](O)[C@H](C)O2)c2c(cc3c(c2O)C(=O)c2c(O)cccc2C3=O)[C@H]1C(=O)OC ?
0.882

Could you tell me which normalized growth is on file for O=c1c(-c2ccc(O)cc2)coc2cc(O)ccc12 ?
0.943

Could you tell me which normalized growth is on file for CCn1cc(C(=O)O)c(=O)c2cc(F)c(N3CCNCC3)nc21 ?
0.984

Could you tell me which normalized growth is on file for O=C1CCC(N2C(=O)c3ccccc3C2=O)C(=O)N1 (stereo not given) ?
1.04

Could you tell me which normalized growth is on file for N[C@@H](Cc1ccc(N(CCCl)CCCl)cc1)C(=O)O ?
0.941

Could you tell me which normalized growth is on file for COc1ccc(-c2coc3cc(O)ccc3c2=O)cc1 ?
0.893

Could you tell me which normalized growth is on file for CC[C@@]1(O)C[C@H](O[C@H]2C[C@H](N(C)C)[C@H](O)[C@H](C)O2)c2c(cc3c(c2O)C(=O)c2c(O)ccc(O)c2C3=O)[C@H]1C(=O)OC ?
0.745

Could you tell me which normalized growth is on file for CC[C@@]1(O)C[C@H](O)c2c(cc3c(c2O)C(=O)c2c(O)ccc(O)c2C3=O)[C@H]1C(=O)OC ?
0.883

Could you tell me which normalized growth is on file for CC1(C)S[C@@H]2[C@H](NC(=O)[C@H](N)c3ccccc3)C(=O)N2[C@H]1C(=O)O ?
0.924

Could you tell me which normalized growth is on file for COc1ccc(-c2coc3cc(O)ccc3c2=O)c(OC)c1O ?
1

Could you tell me which normalized growth is on file for COc1ccc(C(=O)CC(=O)O)c2c1C=CC(C)(C)O2 ?
1

Could you tell me which normalized growth is on file for Cn1c(=O)c2c(ncn2CC(O)CO)n(C)c1=O (stereo not given) ?
0.992

Could you tell me which normalized growth is on file for N=c1ccn2c(n1)OC1C(O)C(CO)OC12 (stereo not given) ?
1.01
